Every entry's value here was drawn from paper PMC11121358.

Target: Bacillus subtilis ferredoxin:NADP^+ oxidoreductase (BsFNR) (Bacillus subtilis)
Sequence (O05268 whole entry): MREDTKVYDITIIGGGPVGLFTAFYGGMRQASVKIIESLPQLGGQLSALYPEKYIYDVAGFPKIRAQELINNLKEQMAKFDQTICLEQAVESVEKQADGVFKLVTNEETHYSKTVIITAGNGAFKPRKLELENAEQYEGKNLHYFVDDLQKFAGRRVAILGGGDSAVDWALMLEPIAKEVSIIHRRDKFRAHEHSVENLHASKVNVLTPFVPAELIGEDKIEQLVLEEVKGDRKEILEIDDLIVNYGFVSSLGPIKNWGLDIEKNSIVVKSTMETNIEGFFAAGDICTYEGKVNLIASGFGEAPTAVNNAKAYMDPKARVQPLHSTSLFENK
Assay: steady-state product inhibition of NADPH:plumbagin reductase reaction
REPORTED_PROPERTY: pKi
# pKi: negative log10 of molar concentration; output just the value

// query Dear colleague, I am looking for the recorded pKi of the following compound: NC(=O)c1ccc[n+]([C@@H]2O[C@H](COP(=O)(O)OP(=O)(O)OC[C@H]3O[C@@H](n4cnc5c(N)ncnc54)[C@H](OP(=O)(O)O)[C@@H]3O)[C@@H](O)[C@H]2O)c1 [NADP^+]
// result 4.20
